These compounds were tested on Human cytomegalovirus DNA polymerase (Human cytomegalovirus, UniProt P08546); IC50 is the recorded read-out.
Sequence (P08546 whole entry): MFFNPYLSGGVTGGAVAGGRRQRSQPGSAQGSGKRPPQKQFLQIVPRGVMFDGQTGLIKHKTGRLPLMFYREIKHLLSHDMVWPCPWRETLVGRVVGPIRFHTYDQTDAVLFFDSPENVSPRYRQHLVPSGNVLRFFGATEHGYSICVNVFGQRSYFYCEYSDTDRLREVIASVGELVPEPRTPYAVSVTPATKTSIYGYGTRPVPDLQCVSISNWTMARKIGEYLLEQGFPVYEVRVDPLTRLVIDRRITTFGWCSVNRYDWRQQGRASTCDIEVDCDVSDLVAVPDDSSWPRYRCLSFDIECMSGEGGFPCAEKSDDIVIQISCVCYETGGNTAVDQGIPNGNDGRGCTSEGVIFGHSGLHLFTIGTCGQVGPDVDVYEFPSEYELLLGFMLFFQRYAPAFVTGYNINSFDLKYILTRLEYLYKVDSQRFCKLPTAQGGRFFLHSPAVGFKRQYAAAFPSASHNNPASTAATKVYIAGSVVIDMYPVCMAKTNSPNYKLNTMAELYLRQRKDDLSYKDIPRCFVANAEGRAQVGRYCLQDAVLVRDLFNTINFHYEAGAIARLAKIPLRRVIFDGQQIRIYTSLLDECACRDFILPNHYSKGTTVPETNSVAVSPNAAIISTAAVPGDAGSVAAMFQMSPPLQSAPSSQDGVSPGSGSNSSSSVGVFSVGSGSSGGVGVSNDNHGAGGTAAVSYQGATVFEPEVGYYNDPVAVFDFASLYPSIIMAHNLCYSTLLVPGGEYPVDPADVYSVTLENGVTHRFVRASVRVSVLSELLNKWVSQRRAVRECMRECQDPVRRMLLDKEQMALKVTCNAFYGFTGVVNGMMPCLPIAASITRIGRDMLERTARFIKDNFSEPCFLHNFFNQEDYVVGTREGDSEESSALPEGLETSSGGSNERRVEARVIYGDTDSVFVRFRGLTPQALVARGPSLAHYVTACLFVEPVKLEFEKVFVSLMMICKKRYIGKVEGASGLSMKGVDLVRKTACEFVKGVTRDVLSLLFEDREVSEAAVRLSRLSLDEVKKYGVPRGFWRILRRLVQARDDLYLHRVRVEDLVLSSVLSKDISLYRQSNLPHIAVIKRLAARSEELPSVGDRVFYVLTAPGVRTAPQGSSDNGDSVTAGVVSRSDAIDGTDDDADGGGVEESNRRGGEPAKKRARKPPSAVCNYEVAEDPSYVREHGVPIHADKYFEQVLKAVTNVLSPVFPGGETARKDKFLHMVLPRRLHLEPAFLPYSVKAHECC
quantity_kind: IC50 (µM)

- CC1c2c(c(C(=O)NCc3ccc(Cl)cc3)nn2C)CN1C(C)C1CCC(=O)N1 (stereo not drawn) [Compound 112]: 0.105
- CC([C@@H]1CCC(=O)N1)N1Cc2c(C(=O)NCc3ccc(Cl)cc3)nn(C(F)F)c2C1 (stereo partly drawn) [Compound 71]: 0.0762
- O=C(NCc1ccc(Cl)cc1)c1nn(CCNC(=O)C2CCC2)c2c1CN(Cc1ccnc(F)c1)C2: 0.119
- CCC1(Cn2nc(C(=O)NCc3ccc(Cl)cc3)c3c2CN(C[C@H]2CCC(=O)N2)C3)COC1: 0.0891
- O=C1CC[C@H](CN2Cc3c(C(=O)NCc4ccc(Cl)cc4)nn(C4CCOC4)c3C2)N1 (single isomer, unassigned) [Compound 34]: 0.0516
- O=C1CC[C@H](CC2Cc3c(C(=O)NCc4ccc(Cl)cc4)nn(CCN4CC(F)C4)c3C2)N1 (stereo partly drawn): 0.0216
- CC([C@@H]1CCC(=O)N1)N1Cc2c(C(=O)NCc3ccc(Cl)cc3)nn(-c3nccs3)c2C1 (single isomer, unassigned) [Compound 5]: 0.0053
- O=C1CC[C@H](CN2Cc3c(C(=O)NCc4ccc(Cl)cc4)nn(-c4ccccn4)c3C2)N1: 0.0258
- CC1c2c(c(C(=O)NCc3ccc(Cl)cc3)nn2C)CN1CC1CCC(=O)N1 (single isomer, unassigned) [Compound 108]: 0.702
- O=C1CC[C@@H](CN2Cc3c(C(=O)NCc4ccc(Cl)cc4)nn(C4CCOCC4)c3C2)N1: 0.124
- CC1(C(=O)NCCn2nc(C(=O)NCc3ccc(Cl)cc3)c3c2CN(C[C@H]2CCC(=O)N2)C3)CC1: 0.0162
- CC(C1CC(F)(F)C(=O)N1)N1Cc2c(C(=O)NCc3ccc(Cl)cc3)nn(C)c2C1 (stereo not drawn) [Compound 86]: 0.0182
- CC1c2c(c(C(=O)NCc3ccc(Cl)cc3)nn2C)CN1CC1CCC(=O)N1 (single isomer, unassigned) [Compound 102]: 5.77
- Cn1nc(C(=O)NCc2ccc(Cl)cc2)c2c1CC(C[C@H]1CCC(=O)N1)C2 (single isomer, unassigned): 0.0742
- Cn1nc(C(=O)NCc2ccc(C#N)c(F)c2)c2c1CN(C[C@H]1CCC(=O)N1)C2: 0.0625

---

The entries below come with measured pIC50 values attached.
- assayed_target: Human cytomegalovirus DNA polymerase (Human cytomegalovirus, UniProt P08546)
pIC50: −log10 of the molar value.
quantity_kind: pIC50

- Cc1cnc(-n2nc(C(=O)NCc3ccc(Cl)cc3)c3c2CN(C[C@H]2CCC(=O)N2)C3)s1: 7.64
- O=C1CC[C@H](CN2Cc3c(C(=O)NCc4ccc(Cl)cc4)nn(-c4ncc(O)cn4)c3C2)N1: 7.44
- O=C1N[C@@H](CN2Cc3c(C(=O)NCc4ccc(Cl)cc4)nn(C(F)F)c3C2)CO1: 8.30
- O=C1CC[C@H](CN2Cc3c(C(=O)NCc4ccc(Cl)cc4)nn([C@@H]4CCCOC4)c3C2)N1: 7.06
- Cc1cn(C)c(-n2nc(C(=O)NCc3ccc(Cl)cc3)c3c2CN(C[C@H]2CCC(=O)N2)C3)n1: 7.04
- Cn1nc(C(=O)NCc2ccc(Cl)cc2)c2c1CN(C[C@@H]1CC(F)C(=O)N1)C2 (stereo partly drawn) [Compound 79]: 7.16
- CCC1c2c(c(C(=O)NCc3ccc(Cl)cc3)nn2C)CN1CC1CCC(=O)N1 (single isomer, unassigned) [Compound 106]: 6.96
- O=C1CC[C@@H](CN2Cc3c(C(=O)NCc4ccc(Cl)cc4)nn(C4CCC(F)(F)C4)c3C2)N1 (single isomer, unassigned) [Compound 54]: 6.83
- O=C1CC[C@@H](CN2Cc3c(C(=O)NCc4ccc(Cl)cc4)nn([C@H]4CCCOC4)c3C2)N1: 6.82
- O=C(NCc1ccc(Cl)cc1)c1nn(C(F)F)c2c1CN(CC13CC(C1)C(=O)N3)C2: 6.27
- CC1c2c(c(C(=O)NCc3ccc(Cl)cc3)nn2C)CN1C[C@@H]1CCC(=O)N1 (stereo partly drawn): 6.28
- [2H]C([2H])([2H])n1nc(C(=O)NCc2ccc(Cl)cc2)c2c1CN(C[C@H]1CCC(=O)N1)C2: 7.15
- Cn1nc(C(=O)NCc2ccc(Cl)cc2)c2c1CN(C[C@H]1CCC(=O)N1)C2: 7.85
- CC(C)n1nc(C(=O)NCc2ccc(Cl)cc2)c2c1CN(C[C@H]1CCC(=O)N1)C2: 7.26
- Cn1nc(C(=O)NCc2ccc(Cl)cc2)c2c1CC(O)(C[C@H]1CCC(=O)N1)C2 (stereo partly drawn): 4.30
